Data credit: patent US8394442B2

# Test description: log Pow* calculated by Formula 2 from log Pow and the polarity parameter P′(x) of the ethanol/water mixture
Recorded endpoint: log Pow* (P′ 40%)

Worked set:
{"columns": ["Compound", "log Pow* (P′ 40%)"],
 "data": [
  ["CC(C)=CCCC(C)=CC=O [Citral]", 2.34],
  ["CC/C=C\\CC1C(=O)CCC1CC(=O)OC (centres unmarked) [Methyl jasmonate]", 0.88],
  ["C=CC(C)(O)CCC=C(C)C (centres unmarked) [Linalool]", 2.48]
]}

[a] CCCCCC=O [Hexanal]
[b] C=Cc1ccc(O)c(OC)c1
[c] CCCSSCCC [Dipropyldisulfide]
Task item: Thanks in advance: please rank these 3 entries by log Pow* (P′ 40%), highest to lowest. // list labels; follow requested order
Reply: c, b, a

[P] CCCCCCOC(C)=O [Hexylacetate]
[Q] CC(C)CCO [3-mebutanol, 3-methylbutanol]
Task item: Hi there! Just curious which has the higher log Pow* (P′ 40%) between P and Q . Return value: the label identifying the chosen record.
Reply: P

[I] CCCCCCCC=O [Octanal]
[II] CCCC(=O)OCC [Ethylbutyrate]
Task item: Kindly identify the item with the lower log Pow* (P′ 40%) figure among these two: I and II Kindly state the label of the option you pick.
Reply: II

###

# Test description: log Pow* calculated by Formula 2 from log Pow and the polarity parameter P′(x) of the ethanol/water mixture
Recorded endpoint: log Pow* (P′ 8%)

[1] C=CC(C)(O)CCC=C(C)C (centres unmarked) [Linalool]
[2] CCCCCC=O [Hexanal]
[3] CC(C)CCO [3-mebutanol, 3-methylbutanol]
Task item: Ascending sort, log Pow* (P′ 8%). # format: label list in the order the request specifies
Reply: 3, 2, 1
(3: 0.71, 2: 1.60, 1: 3.06)

[A] CCCCCCCC=O [Octanal]
[B] CCCC(=O)OCC [Ethylbutyrate]
Task item: Larger number for log Pow* (P′ 8%): A , or B ? Give the label under which the chosen entry appears.
Reply: A
(A: 2.79, B: 1.35)

[a] CCCSSCCC [Dipropyldisulfide]
[b] C=Cc1ccc(O)c(OC)c1
Task item: Of a versus b , which is the one with smaller reported log Pow* (P′ 8%)? Record your answer as the label of the chosen record.
Reply: b

[I] CC(C)=CCCC(C)=CC=O [Citral]
[II] CC/C=C\CC1C(=O)CCC1CC(=O)OC (centres unmarked) [Methyl jasmonate]
Task item: Just curious, which one has the larger log Pow* (P′ 8%) reading, I or II ? Label of pick, please.
Reply: I

###

# Test description: log Pow* calculated by Formula 2 from log Pow and the polarity parameter P′(x) of the ethanol/water mixture
Recorded endpoint: log Pow* (P′ 6%)

Here is how some compounds turned out for log Pow* (P′ 6%).
{"columns": ["Compound", "log Pow* (P′ 6%)"],
 "data": [
  ["CCCCCCOC(C)=O [Hexylacetate]", 2.63],
  ["C=CC(C)(O)CCC=C(C)C (stereo not shown) [Linalool]", 3.11]
]}

[a] CCCCCC=O [Hexanal]
[b] CCCCCCCC=O [Octanal]
Task item: Returns: the label, a or b , whose recorded log Pow* (P′ 6%) is the lower number. Please reply using the label of the selected record.
Reply: a

###

# Test description: log Pow* calculated by Formula 2 from log Pow and the polarity parameter P′(x) of the ethanol/water mixture
Recorded endpoint: log Pow* (P′ 70%)

[A] CCCSSC [Methylpropyldisulfide]
[B] CC/C=C\CC1C(=O)CCC1CC(=O)OC (stereo not shown) [Methyl jasmonate]
Task item: Of A versus B , which is the one with smaller reported log Pow* (P′ 70%)? Reply with the label of the item you choose.
Reply: B

###

# Test description: log Pow: distribution coefficient between 1-octanol and water
# Reported conditions: 1-octanol/water
Recorded endpoint: log Pow

These solved cases illustrate the format of a correct answer.
{"columns": ["Molecule", "Reported result"],
 "data": [
  ["CCC(C)CO (stereo not drawn)", 1.29],
  ["CCCCCC(=O)OC [Methylcapronate]", 2.30],
  ["CC/C=C\\CC1CCCC(=O)O1 (stereo not drawn)", 2.47],
  ["SCc1ccco1", 1.90],
  ["CC1=CCC(C(C)(C)S)CC1 (stereo not drawn)", 4.04]
]}

[1] CCCC(=O)OCC [Ethylbutyrate]
[2] CC(=O)/C=C/C1C(C)=CCCC1(C)C (stereo not drawn)
Task item: Sorting by log Pow in descending order, would 1 or 2 appear first? Returns: label corresponding to the selected item.
Reply: 2
(2: 3.86, 1: 1.77)

###

# Test description: log Pow* calculated by Formula 2 from log Pow and the polarity parameter P′(x) of the ethanol/water mixture
# Reported conditions: solvent ethanol, proportion 80%
Recorded endpoint: log Pow* (P′ 80%)

Example compounds with recorded log Pow* (P′ 80%):
{"columns": ["Compound", "Reported result"],
 "data": [
  ["C=C(C)[C@@H]1CCC2=CC(=O)C[C@@H](C)[C@]2(C)C1 [Nootkatone]", 3.15],
  ["Oc1ccccc1 [Phenol]", "−1.15"],
  ["CC/C=C\\CC1CCCC(=O)O1 (stereo not drawn) [Jasmine lactone]", 0.90],
  ["CCCCCC(=O)OC [Methylcapronate]", 0.61]
]}

[a] CCCCCC1CCCC(=O)O1 (stereo not drawn) [delta decalactone]
[b] CC1=CCC(C(C)(C)S)CC1 (stereo not drawn) [p-menthenethiol-1,8]
Task item: Record comparison, field log Pow* (P′ 80%): mark the lower of a and b . Give the label under which the chosen entry appears.
Reply: a

###

# Test description: log Pow* calculated by Formula 2 from log Pow and the polarity parameter P′(x) of the ethanol/water mixture
# Reported conditions: solvent ethanol, proportion 50%
Recorded endpoint: log Pow* (P′ 50%)

{"columns": ["Compound", "Reported result"],
 "data": [
  ["OCc1ccco1", "−10.52"],
  ["CCCCCCC1CCC(=O)O1 (stereo not drawn)", 1.11],
  ["CCC(C)CO (stereo not drawn)", "−1.05"]
]}

[1] CC1=CCC(C(C)(C)S)CC1 (stereo not drawn)
[2] CCCCCC(=O)OC [Methylcapronate]
Task item: Name the one with the greater log Pow* (P′ 50%) value, either 1 or 2 as given. State your choice using its label.
Reply: 1

###

# Test description: log Pow* calculated by Formula 2 from log Pow and the polarity parameter P′(x) of the ethanol/water mixture
# Reported conditions: solvent ethanol, proportion 60%
Recorded endpoint: log Pow* (P′ 60%)

Completed entries (count: 3):
{"columns": ["Compound", "Reported result"],
 "data": [
  ["SCc1ccco1", 0.13],
  ["CCCCCCC1CCC(=O)O1 (stereo not drawn)", 0.97],
  ["c1ccc2[nH]ccc2c1", 0.57]
]}

[I] CC(=O)C(C)=O
[II] CC(=O)/C=C/C1=C(C)CCCC1(C)C
Task item: Which entry shows the lesser value of log Pow* (P′ 60%) here, I or II ? When you have decided, please share the label of that item.
Reply: I

###

# Test description: log Pow* calculated by Formula 2 from log Pow and the polarity parameter P′(x) of the ethanol/water mixture
# Reported conditions: solvent ethanol, proportion 40%
Recorded endpoint: log Pow* (P′ 40%)

# example entries with known answers
{"columns": ["Molecule", "Reported result"],
 "data": [
  ["c1ccc2[nH]ccc2c1 [Indole]", 0.91],
  ["Oc1ccccc1 [Phenol]", "−0.30"],
  ["CCCCCC1CCCC(=O)O1 (stereo not drawn) [delta decalactone]", 1.33],
  ["CC(=O)/C=C/C1C(C)=CCCC1(C)C (stereo not drawn) [alpha-ionone]", 3.18],
  ["O=Cc1ccccc1 [Benzaldehyde]", 0.03]
]}

[P] C=C(C)[C@@H]1CCC2=CC(=O)C[C@@H](C)[C@]2(C)C1 [Nootkatone]
[Q] CC/C=C\CC1CCCC(=O)O1 (stereo not drawn) [Jasmine lactone]
Task item: Could you check which of P and Q has a smaller value for log Pow* (P′ 40%)? Answer = label.
Reply: Q
(Q: 1.40, P: 3.46)

###

# Test description: log Pow* calculated by Formula 2 from log Pow and the polarity parameter P′(x) of the ethanol/water mixture
# Reported conditions: solvent ethanol, proportion 30%
Recorded endpoint: log Pow* (P′ 30%)

Worked cases, answers included:
{"columns": ["Molecule", "Reported result"],
 "data": [
  ["Oc1ccccc1", 0.02],
  ["O=Cc1ccccc1", 0.32]
]}

[P] C=C(C)[C@@H]1CCC2=CC(=O)C[C@@H](C)[C@]2(C)C1
[Q] CCOC(=O)C(C)CC (stereo not shown) [Ethylmethylbutyrate-2]
[R] CC(=O)C(C)=O
Task item: Falling order of log Pow* (P′ 30%), please. Kindly provide the labels arranged according to the requested ordering.
Reply: P, Q, R

[1] C/C=C/C(=O)C1=C(C)C=CCC1(C)C
[2] CCCCCC(=O)OC [Methylcapronate]
Task item: Field: lower recorded log Pow* (P′ 30%) (choose 1 or 2 ) Return value: the label identifying the chosen record.
Reply: 2
(2: 1.36, 1: 3.91)

[P] CCCCCCC1CCC(=O)O1 (stereo not shown)
[Q] CC(=O)/C=C/C1C(C)=CCCC1(C)C (stereo not shown)
Task item: Look at P and Q . Which one has the lower recorded log Pow* (P′ 30%) number? Output the label that corresponds to your choice.
Reply: P
(P: 1.47, Q: 3.30)

[a] CC/C=C\CC1CCCC(=O)O1 (stereo not shown)
[b] CC1=CCC(C(C)(C)S)CC1 (stereo not shown)
Task item: Could you tell me which of these two has the smaller log Pow* (P′ 30%) figure? First: a Second: b Kindly state the label of the option you pick.
Reply: a
